Measured Target: Phosphatidylinositol 4,5-bisphosphate 3-kinase catalytic subunit delta isoform (Homo sapiens)
Sequence (O00329 whole entry, canonical isoform): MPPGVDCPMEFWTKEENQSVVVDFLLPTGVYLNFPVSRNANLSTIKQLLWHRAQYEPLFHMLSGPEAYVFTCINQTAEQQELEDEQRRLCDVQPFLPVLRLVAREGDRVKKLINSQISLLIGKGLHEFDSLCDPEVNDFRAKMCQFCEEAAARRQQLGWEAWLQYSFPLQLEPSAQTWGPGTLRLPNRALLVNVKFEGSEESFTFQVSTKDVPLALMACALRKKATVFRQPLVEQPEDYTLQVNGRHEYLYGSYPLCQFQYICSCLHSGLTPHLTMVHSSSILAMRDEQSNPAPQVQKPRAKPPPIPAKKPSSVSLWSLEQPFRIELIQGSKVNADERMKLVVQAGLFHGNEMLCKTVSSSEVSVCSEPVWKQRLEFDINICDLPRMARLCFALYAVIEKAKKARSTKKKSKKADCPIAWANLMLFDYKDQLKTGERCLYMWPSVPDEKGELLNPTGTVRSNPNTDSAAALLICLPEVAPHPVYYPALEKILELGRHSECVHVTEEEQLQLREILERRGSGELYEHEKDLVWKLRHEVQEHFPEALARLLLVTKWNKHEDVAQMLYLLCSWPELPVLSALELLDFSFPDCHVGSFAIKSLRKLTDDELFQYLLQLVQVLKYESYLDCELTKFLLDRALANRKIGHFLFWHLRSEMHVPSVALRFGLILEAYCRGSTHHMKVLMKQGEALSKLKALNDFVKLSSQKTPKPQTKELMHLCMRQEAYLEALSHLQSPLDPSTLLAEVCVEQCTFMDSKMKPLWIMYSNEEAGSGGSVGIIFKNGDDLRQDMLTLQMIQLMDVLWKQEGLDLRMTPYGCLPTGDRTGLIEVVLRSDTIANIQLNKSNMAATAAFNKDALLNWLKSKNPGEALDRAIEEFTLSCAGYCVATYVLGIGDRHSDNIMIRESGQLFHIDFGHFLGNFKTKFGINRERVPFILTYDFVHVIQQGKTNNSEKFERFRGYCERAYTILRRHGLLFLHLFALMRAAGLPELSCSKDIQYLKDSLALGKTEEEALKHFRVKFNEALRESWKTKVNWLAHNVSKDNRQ
Assay Comment: [PIP2] was used at its Km.
IC50 strictly under 2 nM means Y; at 2 nM or over means N.

Before answering, review these 2 worked examples.
COc1ncc(-c2c(N)ncnc2N[C@@H](C)c2nn3ccc(C)c3c(=O)n2-c2ccccc2)cc1NS(=O)(=O)C(F)(F)F; Y
COc1ccc(S(=O)(=O)n2ncc3ccc(-c4c(N)ncnc4N[C@@H](C)c4nn5ccc(C)c5c(=O)n4-c4ccccc4)cc32)cc1; Y

Consider Cc1ccn2nc([C@H](C)Nc3ncnc(N)c3C(=O)Nc3cccc(O)c3)n(-c3ccccc3)c(=O)c12 . Does its IC50 lie strictly below 2 nM?
N

Consider COc1ncc(-c2c(N)ncnc2N[C@@H](C)c2nn3ccc(Br)c3c(=O)n2-c2ccccc2)cc1NS(C)(=O)=O . Does its IC50 lie strictly below 2 nM?
N

Consider Cc1ccn2nc([C@H](C)Nc3ncnc(N)c3C(=O)Nc3cc(C(N)=O)ccc3O)n(-c3ccccc3)c(=O)c12 . Does its IC50 lie strictly below 2 nM?
N

Data origin, for the record: ChEMBL document CHEMBL3886805
